Target: JAK3 (Homo sapiens, UniProt P52333)
Construct: endogenous in cells
Sequence (P52333 1-1124): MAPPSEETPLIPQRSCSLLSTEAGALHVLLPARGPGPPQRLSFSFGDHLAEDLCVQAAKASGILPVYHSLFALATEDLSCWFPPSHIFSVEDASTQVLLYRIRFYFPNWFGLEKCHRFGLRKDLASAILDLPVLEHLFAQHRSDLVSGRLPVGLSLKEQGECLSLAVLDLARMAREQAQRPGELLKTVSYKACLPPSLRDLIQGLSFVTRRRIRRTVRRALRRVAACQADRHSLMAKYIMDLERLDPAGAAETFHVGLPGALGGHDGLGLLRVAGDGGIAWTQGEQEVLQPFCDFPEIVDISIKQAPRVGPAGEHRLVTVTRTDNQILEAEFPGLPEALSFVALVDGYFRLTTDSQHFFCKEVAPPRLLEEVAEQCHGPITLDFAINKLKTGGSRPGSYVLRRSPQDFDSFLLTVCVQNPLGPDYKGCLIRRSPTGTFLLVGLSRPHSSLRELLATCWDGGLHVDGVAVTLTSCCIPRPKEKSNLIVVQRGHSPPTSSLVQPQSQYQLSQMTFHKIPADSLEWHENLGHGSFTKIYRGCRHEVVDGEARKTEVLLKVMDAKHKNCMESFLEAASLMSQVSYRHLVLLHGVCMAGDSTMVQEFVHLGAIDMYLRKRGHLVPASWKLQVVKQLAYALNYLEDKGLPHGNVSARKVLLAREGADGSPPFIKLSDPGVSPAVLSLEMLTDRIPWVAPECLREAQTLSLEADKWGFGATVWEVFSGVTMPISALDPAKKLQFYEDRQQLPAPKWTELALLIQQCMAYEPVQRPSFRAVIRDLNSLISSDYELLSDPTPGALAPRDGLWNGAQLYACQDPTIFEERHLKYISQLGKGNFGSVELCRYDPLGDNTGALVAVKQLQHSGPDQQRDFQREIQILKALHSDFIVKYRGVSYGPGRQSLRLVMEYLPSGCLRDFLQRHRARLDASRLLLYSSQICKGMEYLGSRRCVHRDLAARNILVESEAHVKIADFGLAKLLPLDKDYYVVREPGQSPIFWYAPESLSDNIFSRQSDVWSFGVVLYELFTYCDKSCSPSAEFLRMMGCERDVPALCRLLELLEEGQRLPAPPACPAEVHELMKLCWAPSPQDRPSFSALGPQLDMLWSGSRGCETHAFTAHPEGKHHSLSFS
Test: Kinobeads assay, JAK3
Settings: mixed Molt4/Ramos lysate, read-out: Inhibition values (IC50) JAK3
As shown below, each of these compounds has a reported IC50 value.

Some solved cases for reference:
>>> recorded_measurement("Cn1cc(-c2cc(F)cc([C@@H](CO)Nc3nc(Nc4cnn(CCO)c4)ncc3Cl)c2)cn1 [Compound 152]")
"< 100 nM"
>>> recorded_measurement("Cn1cc(Nc2ncc(Cl)c(N[C@H](C(=O)N3CCCC3)c3ccccc3)n2)cn1 [Compound 34]")
"100 to 1000 nM"
>>> recorded_measurement("CC(O)Cn1cc(Nc2ncc(Cl)c(NC(CO)c3c(F)cccc3F)n2)cn1 (stereo not drawn) [Compound 42]")
"< 100 nM"
>>> recorded_measurement("CC(C)NC(=O)Cn1cc(Nc2ncc(Cl)c(N[C@H](CO)c3ccccc3F)n2)cn1 [Compound 115]")
"< 100 nM"
>>> recorded_measurement("NC(=O)Cn1cc(Nc2ncc(F)c(N[C@H](CO)c3ccccc3)n2)cn1 [Compound 108]")
"100 to 1000 nM"

Query for JAK3 (Homo sapiens, UniProt P52333): what IC50 does the record show for CN(C)C(=O)[C@@H](Nc1nc(Nc2cnn(CCO)c2)ncc1Cl)c1ccccc1 [Compound 26] ?
< 100 nM

Now consider Cn1cc(Nc2ncc(C(F)(F)F)c(N[C@H](CO)c3ccccc3)n2)cn1 [Compound 6] and answer again.
< 100 nM
